Source: patent US20250154219A1

molecular target: CLR/RAMP3 receptor (Homo sapiens, UniProt O60896+Q16602); test: CLR/RAMP3 cAMP receptor-activation assay (agonist mode); format: cell-based; conditions: agonist mode
Sequence (Q16602 23-461): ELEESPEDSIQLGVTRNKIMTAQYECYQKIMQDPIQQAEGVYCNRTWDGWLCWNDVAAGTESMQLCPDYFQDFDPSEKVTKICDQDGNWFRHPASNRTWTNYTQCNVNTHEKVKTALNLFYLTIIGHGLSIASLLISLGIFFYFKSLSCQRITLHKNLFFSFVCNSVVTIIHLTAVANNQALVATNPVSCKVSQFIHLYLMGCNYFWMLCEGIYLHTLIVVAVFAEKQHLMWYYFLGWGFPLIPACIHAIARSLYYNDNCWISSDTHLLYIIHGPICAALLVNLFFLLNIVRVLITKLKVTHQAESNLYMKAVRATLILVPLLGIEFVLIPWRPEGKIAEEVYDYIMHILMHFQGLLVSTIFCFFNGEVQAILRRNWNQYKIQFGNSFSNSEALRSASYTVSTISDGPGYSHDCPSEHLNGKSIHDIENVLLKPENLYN
Sequence (O60896 24-148): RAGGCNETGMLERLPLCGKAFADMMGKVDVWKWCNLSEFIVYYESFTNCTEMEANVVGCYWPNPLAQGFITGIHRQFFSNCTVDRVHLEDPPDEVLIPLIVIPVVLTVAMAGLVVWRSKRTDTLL
parameter: CLR/RAMP3 Max Activity % of positive control

> print(dat)
                                  substance                               target.desc            reported.result
1  miniPEG-K(PAL)GCRFGTCTVQKLAHQIYQFTDKDVAPRSKISPQGY-NH2 [SEQ ID NO: 101]  CLR/RAMP3 receptor (Homo sapiens, UniProt O60896+Q16602)  129 % of positive control
2  miniPEG-K(PAL)GCRFGTCTVQKLAHQIYQFTDKDKDNSAPVDPSSPHSY-NH2 [SEQ ID NO: 28]  CLR/RAMP3 receptor (Homo sapiens, UniProt O60896+Q16602)  117 % of positive control
3  miniPEG-K(PAL)GCRFGTCTVQKLAHQIYQFTDKDKDNVAPRSKISPQGY-NH2 [SEQ ID NO: 69]  CLR/RAMP3 receptor (Homo sapiens, UniProt O60896+Q16602)  127 % of positive control
4  miniPEG-K(PAL)GCRFGTCTVQKLAHQIYQFTDKDSAPVDPSSPHSY-NH2 [SEQ ID NO: 48]  CLR/RAMP3 receptor (Homo sapiens, UniProt O60896+Q16602)  141 % of positive control

* * *

molecular target: CLR/RAMP1 receptor (Homo sapiens, UniProt O60894+Q16602); test: CLR/RAMP1 cAMP assay, antagonist mode (CGRP-stimulated); type: cell-based; conditions: antagonist mode
Sequence (Q16602 23-461): as the sequence (Q16602 23-461) above
Sequence (O60894 27-148): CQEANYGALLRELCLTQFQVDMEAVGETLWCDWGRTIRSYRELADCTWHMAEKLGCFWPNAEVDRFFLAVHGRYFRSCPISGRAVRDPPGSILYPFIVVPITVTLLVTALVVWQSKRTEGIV
Here, each record is paired with measured CLR/RAMP1 Max Activity % of positive control (antagonist) data.
parameter: CLR/RAMP1 Max Activity % of positive control (antagonist)

> print(dat)
                                  substance                               target.desc            reported.result
1  Ace-KRPPGFSPFR-miniPEG-K(Pal)VQKLAHQIYQFTDKDVAPRSKISPQGY-NH2 [SEQ ID NO: 149]  CLR/RAMP1 receptor (Homo sapiens, UniProt O60894+Q16602)  101 % of positive control
2  miniPEG-K(PAL)VQKLSAPVDPSSPHSY-NH2 [SEQ ID NO: 140]  CLR/RAMP1 receptor (Homo sapiens, UniProt O60894+Q16602)  100 % of positive control
3  Pal-KVQKLNFVPTNVGSKAF-NH2 [SEQ ID NO: 142]  CLR/RAMP1 receptor (Homo sapiens, UniProt O60894+Q16602)  100 % of positive control
4  Pal-KVQKLAHQSAPVDPSSPHSY-NH2 [SEQ ID NO: 124]  CLR/RAMP1 receptor (Homo sapiens, UniProt O60894+Q16602)   95 % of positive control
5  Ace-Y(D-Ala)GF(D-Leu)-miniPEG-K(Pal)VQKLSAPVDPSSPHSY-NH2 [SEQ ID NO: 145]  CLR/RAMP1 receptor (Homo sapiens, UniProt O60894+Q16602)   99 % of positive control
6  PEG20,000-K[PAL]VQKLAHQIYQFTDKDSAPVDPSSPHSY-NH2 [SEQ ID NO: 190]  CLR/RAMP1 receptor (Homo sapiens, UniProt O60894+Q16602)  104 % of positive control
7  PEG5000-K[PAL]VQKLAHQIYQFTDKDSAPVDPSSPHSY-NH2 [SEQ ID NO: 192]  CLR/RAMP1 receptor (Homo sapiens, UniProt O60894+Q16602)  101 % of positive control
8     Ace-NFVPTNVGPFAF-NH2 [SEQ ID NO: 144]  CLR/RAMP1 receptor (Homo sapiens, UniProt O60894+Q16602)   98 % of positive control
9  Pal-KVQNLSAPVDPSSPHSY-NH2 [SEQ ID NO: 141]  CLR/RAMP1 receptor (Homo sapiens, UniProt O60894+Q16602)   43 % of positive control

* * *

target: CLR/RAMP1 receptor (Homo sapiens, UniProt O60894+Q16602); experiment: CLR/RAMP1 cAMP receptor-activation assay (agonist mode); format: cell-based; details: 1321N1 cells stably expressing CLR/RAMP1; cAMP assay
parameter: EC50 (nM)

> print(dat)
                                  substance  readout.units  reported.result
1  miniPEG-K(PAL)GCRFGTCTVQKLAHQIYQFTDKDSAPVDPSSPHSY-NH2 [SEQ ID NO: 48]             nM              0.3

* * *

biological target: CLR/RAMP1 receptor (Homo sapiens, UniProt O60894+Q16602); test: CLR/RAMP1 cAMP receptor-activation assay (agonist mode); format: cell-based; settings: agonist mode; positive control β-CGRP;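 further: Dose–response over 10 threefold dilutions from 1.0 µM, run in duplicate, luminescent cAMP detection (RLU), activity scaled between vehicle control (0%) and maximal control (100%)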
parameter: CLR/RAMP1 Max Activity % of positive control

> print(dat)
                                   substance            reported.result
 1  Ace-FGCRFGTCTVQKLAHQIYQFTDKDKDNVAPRSKISPQGY-NH2 [SEQ ID NO: 53, reference compound]   69 % of positive control
 2  Ace-PEG3-K([19-carboxy-nonadecanoyl]-isoGlu)GCRFGTCTVQKLAHQIYQFTDKDKDNVAPRSKISPQGY-NH2 [SEQ ID NO: 155]   81 % of positive control
 3  miniPEG-K(PAL)GCRFGTCTVQKLAHQIYQFTDKDKDNVAPRSKSSPHSY-NH2 [SEQ ID NO: 61]   70 % of positive control
 4  miniPEG-K(PAL)GCRFGTCTVQKLAHQIYQFTDKDVAPR(D-Ser)KISPQGY-NH2 [SEQ ID NO: 213]  115 % of positive control
 5  miniPEG-K(PAL)GCRFGTCTVQKLAHQIYQFTDKDKDNVAPVDPSSPHSY-NH2 [SEQ ID NO: 50]   65 % of positive control
 6  miniPEG-K(PAL)GCRFGTCTVQKLAHQIYQFTDKDKSAPVDPSSPHSY-NH2 [SEQ ID NO: 47]   85 % of positive control
 7  miniPEG-K(PAL)GCRFGTCTVQKLAHQIYQFTDKDKDNVDPSSPHSY-NH2 [SEQ ID NO: 94]   67 % of positive control
 8  miniPEG-K(PAL)GCRFGTCTVQKLAHQIYQFTDKDSAPVDPSSPHSY-NH2 [SEQ ID NO: 48]   78 % of positive control
 9  Pyr(glu)-LYENKPRRPYIL-miniPEG-K(PAL)GCRFGTCTVQKLAHQIYQFTDKDVAPRSKISPQGY-NH2 [SEQ ID NO: 223]  102 % of positive control
10  Ace-PEG12-PEG12-K([19-carboxy-nonadecanoyl]-isoGlu-PEG3)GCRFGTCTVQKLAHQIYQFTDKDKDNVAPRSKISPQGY-NH2 [SEQ ID NO: 150]   94 % of positive control
11  miniPEG-K(PAL)GCRFGTCTVQKLAHQIYQFTDKDVAPRSKISPQGY-NH2 [SEQ ID NO: 101]   56 % of positive control
12  miniPEG-K(PAL)CRFGTCTVQKLAHQIYQFTDKDKDNSAPVDPSSPHSY-NH2 [SEQ ID NO: 43]   39 % of positive control
13  Ace-PEG3-K([19-carboxy-nonadecanoyl]-isoGlu-PEG3)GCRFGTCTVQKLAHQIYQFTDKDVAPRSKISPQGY-NH2 [SEQ ID NO: 159]   90 % of positive control
14  miniPEG-K(PAL)TKKTLRTGCRFGTCTVQKLAHQIYQFTDKDKDNVAPRSKISPQGY-NH2 [SEQ ID NO: 70]   69 % of positive control
15  miniPEG-K(PAL)GCRFGTCTVQKLAHQIYQFTDKDKDNSAPVDPSSPHSY-NH2 [SEQ ID NO: 28]   54 % of positive control

* * *

target: CLR/RAMP1 receptor (Homo sapiens, UniProt O60894+Q16602); test: CLR/RAMP1 cAMP assay, antagonist mode (CGRP-stimulated); type: cell-based; details: antagonist mode
parameter: CLR/RAMP1 Max Activity % of positive control (antagonist)

> print(dat)
                                  substance            reported.result
1  Ace-YGGFLRRIRPKLK-miniPEG-K(Pal)VQKLSAPVDPSSPHSY-NH2 [SEQ ID NO: 146]  102 % of positive control
2  Ace-YNWNSFGLRF-miniPEG-K(PAL)VQKLAHQIYQFTDKDVAPRSKISPQGY-NH2 [SEQ ID NO: 148]  100 % of positive control
3  Pyr(glu)-LYENKPRRPYIL-miniPEG-K(Pal)VQKLSAPVDPSSPHSY-NH2 [SEQ ID NO: 224]   99 % of positive control
4  PEG2000-K[PAL]VQKLAHQIYQFTDKDSAPVDPSSPHSY-NH2 [SEQ ID NO: 191]   98 % of positive control
